# System under test: CDK2 (Homo sapiens)
# Construct: HEK293 clonal lines with CRISPR KI HiBiT tag on CDK2 proteins; host or cells: HEK293 clonal line, CRISPR knock-in HiBiT-CDK2, stably expressing LgBiT
# Test description: NanoBiT assay (CDK2 degradation)
# Type: cell-based
# Experimental setup: HEK293, HEK293 clonal line with CRISPR KI HiBiT tag on CDK2, Endurazine live cell substrate, 24 hours
Measured Dmax of individual entries

{"Compound": "CC1(C)[C@H]2CC=C(CCOC(=O)NCc3ccc4c(c3)C(=O)N(C3CCC(=O)NC3=O)C4)[C@@H]1C2 (stereo partly drawn) [Compound 129]", "Dmax": "10 to 50%"}
{"Compound": "O=C1CCC(N2Cc3ccc(CNC(=O)OCC4CCS(=O)(=O)C4)cc3C2=O)C(=O)N1 (stereo not drawn) [Compound 51]", "Dmax": "≤ 10%"}
{"Compound": "CC1(C)COC1COC(=O)NCc1ccc2c(c1)C(=O)N(C1CCC(=O)NC1=O)C2 (stereo not drawn) [Compound 79]", "Dmax": "≤ 10%"}

Ask: Can you share its Dmax? I mean this compound: O=C1CCC(N2Cc3c(Cl)cc(CNc4nnc(C5CC6(CCC6)C5)o4)cc3C2=O)C(=O)N1 (stereo not drawn) [Compound 140]
Reply: 50 to 80%

Ask: Can you share its Dmax? I mean this compound: O=C1CCC(N2Cc3ccc(CNC(=O)OCCC4CC4(F)F)cc3C2=O)C(=O)N1 (stereo not drawn) [Compound 78]
Reply: ≤ 10%

Ask: Can you share its Dmax? I mean this compound: O=C1CCC(N2Cc3ccc(CNC(=O)OC4CC5(CCCC5)C4)cc3C2=O)C(=O)N1 (stereo not drawn) [Compound 121]
Reply: 10 to 50%

Ask: Can you share its Dmax? I mean this compound: C[C@H]1C[C@H](COC(=O)NCc2ccc3c(c2)C(=O)N(C2CCC(=O)NC2=O)C3)C1 (stereo partly drawn) [Compound 119]
Reply: 10 to 50%

Ask: Can you share its Dmax? I mean this compound: O=C1CCC(N2Cc3ccc(CNC(=O)OC[C@@H]4C[C@H]4F)cc3C2=O)C(=O)N1 (mixture of isomers) [Compound 75]
Reply: ≤ 10%

###

pKi: −log10 of the molar value.
// pKi collected for CRBN-DDB1 (Homo sapiens)

Record excerpt, results attached:
{"Molecule": "O=C1CCC(N2Cc3ccc(CNC(=O)O[C@@H]4C[C@H]5CC[C@@H]4O5)cc3C2=O)C(=O)N1 (mixture of isomers)", "System under test": "CRBN-DDB1 (Homo sapiens)", "pKi": "6.00 to 7.00"}
{"Molecule": "COC1CC(COC(=O)NCc2ccc3c(c2)C(=O)N(C2CCC(=O)NC2=O)C3)C1 (stereo not shown)", "System under test": "CRBN-DDB1 (Homo sapiens)", "pKi": "6.00 to 7.00"}
{"Molecule": "O=C1CCC(N2Cc3ccc(CNC(=O)OCC4CCc5ccccc54)cc3C2=O)C(=O)N1 (stereo not shown)", "System under test": "CRBN-DDB1 (Homo sapiens)", "pKi": "6.00 to 7.00"}
{"Molecule": "CC(C)C1CC(COC(=O)NCc2ccc3c(c2)C(=O)N(C2CCC(=O)NC2=O)C3)C1 (stereo not shown)", "System under test": "CRBN-DDB1 (Homo sapiens)", "pKi": "≥ 7.00"}
{"Molecule": "CCC1(CCCOC(=O)NCc2ccc3c(c2)C(=O)N(C2CCC(=O)NC2=O)C3)CC1 (stereo not shown)", "System under test": "CRBN-DDB1 (Homo sapiens)", "pKi": "6.00 to 7.00"}

Ask: Form entry - test system: CRBN-DDB1 (Homo sapiens); read-out: pKi; molecule: CC12COC(COC(=O)NCc3ccc4c(c3)C(=O)N(C3CCC(=O)NC3=O)C4)(C1)C2 (stereo not shown)
Sequence (Q96SW2 whole entry): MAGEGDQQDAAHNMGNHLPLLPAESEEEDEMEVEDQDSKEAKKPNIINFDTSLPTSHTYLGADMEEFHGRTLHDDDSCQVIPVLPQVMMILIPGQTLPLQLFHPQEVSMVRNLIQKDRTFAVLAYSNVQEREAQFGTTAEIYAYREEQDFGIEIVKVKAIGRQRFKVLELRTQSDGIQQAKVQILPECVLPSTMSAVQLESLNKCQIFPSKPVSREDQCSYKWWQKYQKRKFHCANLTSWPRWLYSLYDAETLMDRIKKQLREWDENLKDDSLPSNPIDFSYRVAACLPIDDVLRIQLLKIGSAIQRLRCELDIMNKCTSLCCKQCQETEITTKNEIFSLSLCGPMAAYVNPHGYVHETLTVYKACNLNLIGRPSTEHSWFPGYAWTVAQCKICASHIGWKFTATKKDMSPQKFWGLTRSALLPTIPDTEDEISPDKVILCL
Sequence (Q16531 whole entry partner): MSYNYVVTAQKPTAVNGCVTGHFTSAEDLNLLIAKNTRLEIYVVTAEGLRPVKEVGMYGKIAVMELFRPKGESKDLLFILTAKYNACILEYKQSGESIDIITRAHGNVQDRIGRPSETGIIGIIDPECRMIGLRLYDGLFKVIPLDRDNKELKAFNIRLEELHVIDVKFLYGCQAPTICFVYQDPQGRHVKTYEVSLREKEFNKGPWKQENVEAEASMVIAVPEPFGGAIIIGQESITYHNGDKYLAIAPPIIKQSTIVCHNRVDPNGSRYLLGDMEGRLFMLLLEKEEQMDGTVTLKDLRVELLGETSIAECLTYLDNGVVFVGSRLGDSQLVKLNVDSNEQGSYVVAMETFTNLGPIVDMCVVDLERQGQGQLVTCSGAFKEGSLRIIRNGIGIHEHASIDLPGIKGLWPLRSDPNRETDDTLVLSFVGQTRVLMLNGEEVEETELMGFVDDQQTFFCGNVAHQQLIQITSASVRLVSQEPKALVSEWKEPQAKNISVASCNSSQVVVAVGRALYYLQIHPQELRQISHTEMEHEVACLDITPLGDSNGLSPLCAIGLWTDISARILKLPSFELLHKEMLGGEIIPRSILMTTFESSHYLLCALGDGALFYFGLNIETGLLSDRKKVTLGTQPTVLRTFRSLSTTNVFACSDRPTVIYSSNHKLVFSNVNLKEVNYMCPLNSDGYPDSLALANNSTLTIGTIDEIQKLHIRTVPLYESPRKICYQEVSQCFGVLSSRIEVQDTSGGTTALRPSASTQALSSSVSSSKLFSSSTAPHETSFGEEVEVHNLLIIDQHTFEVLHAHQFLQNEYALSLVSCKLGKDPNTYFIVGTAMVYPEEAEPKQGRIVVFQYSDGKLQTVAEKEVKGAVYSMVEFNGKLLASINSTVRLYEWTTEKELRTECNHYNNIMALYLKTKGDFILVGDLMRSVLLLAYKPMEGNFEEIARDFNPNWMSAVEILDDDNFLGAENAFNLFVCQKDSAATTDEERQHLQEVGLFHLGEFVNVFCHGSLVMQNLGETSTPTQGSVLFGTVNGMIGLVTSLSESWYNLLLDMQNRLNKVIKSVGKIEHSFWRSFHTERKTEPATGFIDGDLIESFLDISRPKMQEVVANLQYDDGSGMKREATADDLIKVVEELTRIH
Reply: 6.00 to 7.00

Ask: Form entry - test system: CRBN-DDB1 (Homo sapiens); read-out: pKi; molecule: CO[C@H]1C[C@@H](OC(=O)NCc2ccc3c(c2)C(=O)N(C2CCC(=O)NC2=O)C3)C1 (stereo partly shown)
Reply: 6.00 to 7.00
